PROTOCOL_NOTES: Plasma stability, mouse plasma
CONDITION_CONTEXT: Balb C, mouse, Li-heparin plasma
Bridge positions count the residues as written; N and C are the ends. Peptide text beside a SMILES is read from it.
QUANTITY: remaining at 2 h, 10 µM (%)
Field format: number, assumed %, no unit text.

See these solved cases before continuing.
COMPOUND: CC(=O)N[C@@H](CO)C(=O)N[C@@H](CCCNC(=N)N)C(=O)N[C@@H](CC(C)C)C(=O)N[C@@H](CCC(=O)O)C(=O)N[C@H]1CC(=O)NCCCC[C@@H](C(=O)N[C@@H](CCCNC(=N)N)C(=O)N[C@@H](CC(C)C)C(=O)N[C@H](C(=O)N[C@@H](CCC(=O)O)C(N)=O)[C@@H](C)O)NC(=O)[C@H](CCCNC(=N)N)NC(=O)[C@H](CC(C)C)NC(=O)[C@H](CCC(=O)O)NC1=O [SD15196] (Ac-SRLEDELRKRLTE-NH2; lactam 5-9)
remaining at 2 h, 10 µM / %: 94.3
//
COMPOUND: CC(=O)N[C@@H](CO)C(=O)N[C@@H](CCCNC(=N)N)C(=O)N[C@@H](CC(C)C)C(=O)N[C@@H](CCC(=O)O)C(=O)N[C@H]1CCC(=O)NCCCC[C@@H](C(=O)N[C@@H](CCCNC(=N)N)C(=O)N[C@@H](CCCNC(=N)N)C(=O)N[C@@H](CC(C)C)C(=O)N[C@H](C(=O)N[C@@H](CCC(=O)O)C(N)=O)[C@@H](C)O)NC(=O)[C@H](CC(C)C)NC(=O)[C@H](CCC(=O)O)NC1=O [SD15192] (Ac-SRLEEELKRRLTE-NH2; lactam 5-8)
remaining at 2 h, 10 µM / %: 85.9
//
COMPOUND: CC(=O)N[C@@H](CO)C(=O)N[C@@H](CCCNC(=N)N)C(=O)N[C@@H](CC(C)C)C(=O)N[C@@H](CCC(=O)O)C(=O)N[C@@H](CCC(=O)O)C(=O)N[C@@H](CCC(=O)O)C(=O)N[C@@H](CC(C)C)C(=O)N[C@@H](CCCNC(=N)N)C(=O)N[C@H]1CCCCNC(=O)CC[C@@H](C(N)=O)NC(=O)[C@H]([C@@H](C)O)NC(=O)[C@H](CC(C)C)NC(=O)[C@H](CCCNC(=N)N)NC1=O [SD15193] (Ac-SRLEEELRKRLTE-NH2; lactam 9-13)
remaining at 2 h, 10 µM / %: 87.5

// next entry
Give the reported value of remaining at 2 h, 10 µM for this record: CC(=O)N[C@@H](CO)C(=O)N[C@@H](CCCNC(=N)N)C(=O)N[C@@H](CC(C)C)C(=O)N[C@@H](CCC(=O)O)C(=O)N[C@H]1CCC(=O)NCCCC[C@@H](C(=O)N[C@@H](CCCNC(=N)N)C(=O)N[C@@H](CC(C)C)C(=O)N[C@H](C(=O)N[C@@H](CCC(=O)O)C(N)=O)[C@@H](C)O)NC(=O)[C@H](CCCNC(=N)N)NC(=O)[C@H](CC(C)C)NC(=O)[C@H](CCC(=O)O)NC1=O [SD15194] (Ac-SRLEEELRKRLTE-NH2; lactam 5-9)
95.5
